Target: T1, recombinant extracellular domain of the predominant human CD22-beta isoform (CD22-ECD) (human, UniProt P20273 20-687, CHO-expressed glycoprotein. Capture on an SA chip implies biotinylation, but the patent does not state it for SPR.)
T1 construct: Expressed in CHO-3E7 cells, IMAC and SEC purified, monomeric fraction; Results say it was immobilized onto a CM5 dextran chip; also called human CD22-ECD; hCD22 ecto-domain
T1 sequence: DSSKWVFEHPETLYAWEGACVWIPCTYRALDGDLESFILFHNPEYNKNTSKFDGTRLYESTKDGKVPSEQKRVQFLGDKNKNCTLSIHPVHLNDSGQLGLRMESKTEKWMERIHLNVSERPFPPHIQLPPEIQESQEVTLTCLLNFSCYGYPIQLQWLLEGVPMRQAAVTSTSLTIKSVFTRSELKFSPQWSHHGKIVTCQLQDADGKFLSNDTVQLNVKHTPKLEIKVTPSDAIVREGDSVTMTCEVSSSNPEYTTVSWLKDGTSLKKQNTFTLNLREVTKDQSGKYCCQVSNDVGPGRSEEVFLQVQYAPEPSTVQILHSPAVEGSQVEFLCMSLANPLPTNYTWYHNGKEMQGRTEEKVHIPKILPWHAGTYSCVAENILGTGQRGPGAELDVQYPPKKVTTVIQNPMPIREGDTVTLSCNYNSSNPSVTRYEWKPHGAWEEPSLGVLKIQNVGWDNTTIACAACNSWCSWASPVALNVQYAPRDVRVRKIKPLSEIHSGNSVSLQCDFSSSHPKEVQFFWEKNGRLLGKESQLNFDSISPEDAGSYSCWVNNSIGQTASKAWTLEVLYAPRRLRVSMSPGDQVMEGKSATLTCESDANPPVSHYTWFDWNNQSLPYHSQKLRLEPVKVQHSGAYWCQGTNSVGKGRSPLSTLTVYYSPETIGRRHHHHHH
Experiment: SPR, Biacore T200, VHH over immobilized CD22-ECD
Lab note: compare kon against 500000 M⁻¹ s⁻¹. Equal or greater, write Criterion met. Smaller, write Criterion not met.

# Binder, Class
rows = [
    ("hCD221ug-14 (VHH, single biotin at the VHH C-terminal (biotinylation signal sequence), llama VHH, expressed in E. coli TG1, IMAC purified, monomeric SEC fraction; also called VHH # 16; 9-hCD22 1ug-14) VHH: QVKLEESGGGLVQAGGSLRLSCAVSGRIFRSYVLGWFRQAPGKERELVARIGWSDTYYADSVKGRFTISRDNAKNTVDLQMNSLKPEDTAVYYCAANSPPYGPQRDEFDYWGQGTQVTVSS", "Criterion met"),
    ("hCD22pas-24 (VHH, single biotin at the VHH C-terminal (biotinylation signal sequence), llama VHH, expressed in E. coli TG1, IMAC purified, monomeric SEC fraction; also called VHH # 26; 8-hCD22 pas-24) VHH: QVQLVESGGGLVQAGGSLRLSCSASGITSSINSMGWHRQAPGKQRELVASIGRGGSGSTKYADSGKGRFLISRDNNKNILFLEMNSLKPEDTADYYCLEVTTDLSSYWGRGTQVTVSS", "Criterion not met"),
    ("hCD22pas-16 (VHH, single biotin at the VHH C-terminal (biotinylation signal sequence), llama VHH, expressed in E. coli TG1, IMAC purified, monomeric SEC fraction; also called VHH # 20) VHH: QVQLVESGGGLVQAGGSLRLSCAASGSTFSLKAMAWYRQAPGKQRERVGVINSDGSYTTDAASVQGRFTISRDNAKNTVYLQMNSLKPEDTAVYYCNTMPPWPWGQGTQVTVSS", "Criterion not met"),
    ("hCD221ug-36 (VHH, single biotin at the VHH C-terminal (biotinylation signal sequence), llama VHH, expressed in E. coli TG1, IMAC purified, monomeric SEC fraction; also called VHH # 22; 4-hCD22 1ug-36) VHH: EVQLVDSGGGLVQAGGSLRVSCEASGITFSRAAMGWYRQRPGKERERVAVVNSDSSTIYADSVKGRFTISRDNAKNTVYLQMNSLEPEDTAVYYCWSPGFGSYWGQGTQVTVSS", "Criterion not met"),
    ("hCD22100ng-66 (VHH, single biotin at the VHH C-terminal (biotinylation signal sequence), llama VHH, expressed in E. coli TG1, IMAC purified, monomeric SEC fraction; also called VHH # 4) VHH: QVQLVESGGGLVQPGGSLRLSCTVSGFSLDYYVMGWFRQAPGKEREVVSCISSSDGATYYPDSVKGRFTISRDNAKKTVYLQMNALKPEDTAIYYCAVDKPFYDGGSYYTCPVDFGSWGQGTQVTVSS", "Criterion not met"),
    ("hCD221ug-87 (VHH, single biotin at the VHH C-terminal (biotinylation signal sequence), llama VHH, expressed in E. coli TG1, IMAC purified, monomeric SEC fraction; also called VHH # 9) VHH: QVQLVESGGGLVQPGGSLRLSCADSGSIFRIAVMNWYRQAPGKERELVAVITSGGETHYAASVKGRFTISRDNAKNTMYLQMNSLKPEDTAVYYCNAKWGRDEYWGQGTQVTVSS", "Criterion met"),
    ("hCD221ug-77 (VHH, single biotin at the VHH C-terminal (biotinylation signal sequence), llama VHH, expressed in E. coli TG1, IMAC purified, monomeric SEC fraction; also called VHH # 8) VHH: QVKLEESGGGLVQPGGSLRLSCADSGSIFRIAVMNWYRQAPGKERELVAVITSGGETHYAASVKGRFTISRDNAKNTMYLQMNSLKPEDTAVYYCNAKWGQYEYWGQGTQVTVSS", "Criterion met"),
    ("hCD221ug-61 (VHH, single biotin at the VHH C-terminal (biotinylation signal sequence), llama VHH, expressed in E. coli TG1, IMAC purified, monomeric SEC fraction; also called VHH # 14; 3-hCD22 1ug-61) VHH: QVQLVESGGGLVQAGGSLRLSCAASMSSFSQYVMYWYRQAPGKQRELVATITSYSNTNYADSVKGRFTISRDNAKSIAYLQMDSLKPEDTAVYYCNAQYGSTFIRNHWDDWGQGTQVTVSS", "Criterion met"),
    ("hCD221ug-74 (VHH, single biotin at the VHH C-terminal (biotinylation signal sequence), llama VHH, expressed in E. coli TG1, IMAC purified, monomeric SEC fraction; also called VHH # 3) VHH: QVKLEESGGGLVQAGGSLRLSCAGSGFTFDDYAMGWFRQAPGKEREVVSCMGSSDGATYYADSVKGRFTISRDNAKNTVYLQMNSLKPEDTAIYYCAVDKPFYDGGYRYTCPVDFGSWGQGTQVTVSS", "Criterion not met"),
    ("hCD221ug-6 (VHH, single biotin at the VHH C-terminal (biotinylation signal sequence), llama VHH, expressed in E. coli TG1, IMAC purified, monomeric SEC fraction; also called VHH # 5) VHH: QVQLVESGGGVVRPGDSLRLSCTVSGFTLDYYVMGWFRQAPGKEREVVSCISSSDGVTYYADSVKGRFTISRDNAKNTVYLQMNSLKPEDTAIYYCAVDKPFYDGGYYYTCPVDFDSWGQGTQVTVSS", "Criterion not met"),
    ("hCD221ug-80 (VHH, single biotin at the VHH C-terminal (biotinylation signal sequence), llama VHH, expressed in E. coli TG1, IMAC purified, monomeric SEC fraction; also called VHH # 1; 2-hCD22 1ug-80) VHH: QVQLVESGGGLVQPGGSLRLSCTFSGFTLDYYVMVWFRQAPGKEREAVSCITSDGVTYYADSVKGRFTISRDNAKNTVYLQMNRVKPEDTAVYYCAVDKPFYDGGIQYTCPVDFDSWGQGAQVTVSS", "Criterion not met"),
    ("hCD221ug-75 (VHH, single biotin at the VHH C-terminal (biotinylation signal sequence), llama VHH, expressed in E. coli TG1, IMAC purified, monomeric SEC fraction; also called VHH # 10) VHH: QVKLEESGGGLVQPGGSLRLSCAGSGSIFRIAVMNWYRQAPGKERELVAVITSGGDTHYAASVKGRFTISRDNAKNTMYLQINSLKPEDTAVYYCNAKYGRDEYWGQGAQVTVSS", "Criterion met"),
    ("hCD22pas-33 (VHH, single biotin at the VHH C-terminal (biotinylation signal sequence), llama VHH, expressed in E. coli TG1, IMAC purified, monomeric SEC fraction; also called VHH # 7) VHH: QVKLEESGGGLVQPGGSLRLSCTVSGFTLDSYVMGWFRQAPGKEREAVSCISSSDGVTYYADSVKGRFTISRDNAKNTYLQMNSLKPEDTAIYYCAVDKPFYDGGYLYTCPVDFDSWGQGIQVTVSS", "Criterion not met"),
    ("hCD22pas-32 (VHH, single biotin at the VHH C-terminal (biotinylation signal sequence), llama VHH, expressed in E. coli TG1, IMAC purified, monomeric SEC fraction; also called VHH # 15; 6-hCD22 pas-32) VHH: QVQLVESGGGLVQAGGSLRLSCAVSGRIFRSYVLGWFRQAPGKERELVARIGWSDTYYADSVKGRFTISRDNAKNTVDLQMNSLKPEDTAVYYCAANSPPYGPQRDEFGYWGQGTQVTVSS", "Criterion not met"),
    ("hCD221ug-10 (VHH, single biotin at the VHH C-terminal (biotinylation signal sequence), llama VHH, expressed in E. coli TG1, IMAC purified, monomeric SEC fraction; also called VHH # 23; 5-hCD22 1ug-10) VHH: QVQLVESGGGLVQAGGSLSVSCTASESTFSIMMGWFRQAPGKQREMVAVINSAGSTNYADSAEGRFTISRDLAKKTVSLQMNSLKPEDTAVYYCYVDGYFGQGTQVTVSS", "Criterion not met"),
]
